assay: recombinant barcode read abundance after kanamycin selection (control-corrected) (log10(CPM+1)); higher = more efficient recombination; sequences stand for … in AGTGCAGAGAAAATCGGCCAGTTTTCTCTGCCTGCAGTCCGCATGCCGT…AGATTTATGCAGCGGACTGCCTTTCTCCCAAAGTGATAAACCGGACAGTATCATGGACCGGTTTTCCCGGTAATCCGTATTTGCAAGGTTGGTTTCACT; site = the 11-nt target;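 note: IS621 recombinase and bridge RNA in Escherichia coli cells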
Record form. Attribute: recombinant barcode read abundance (log10). Fill in for each entry.
# print the numeric value only

What does the record list as recombinant barcode read abundance (log10) for TATTTGTCTTGGGTTCTAACCTGTTGCTA (site TAGTCGTCTTA) ?
0.148

Consider the sequence shown here: CACGCCTCTTGGGTTCTAACCTGTTGCCT (site AACGCCTCTAG) What is its recorded recombinant barcode read abundance (log10)?
0.116

Fill in the blank: the reported recombinant barcode read abundance (log10) of GAGAGAACTTGGGTTCTAACCTGTTGCCT (site GAGAGAACTAG) is ____.
1.51

Quick one: recombinant barcode read abundance (log10) of GGGGATTCTTGGGTTCTAACCTGTTGCCT (site GGGGATTCTAG) ?
2.05

Query (sequence): CGGACGTCTTGGGTTCTAACCTGTTGCTG (site CGGGCGTCTAA) ; field requested: recombinant barcode read abundance (log10)
0.0605

Query: recombinant barcode read abundance (log10); subject: GTTTCGGCTTGGGTTCTAACCTGTTGCCT (site GTTACGGCTAG)
0.041

Find the recorded recombinant barcode read abundance (log10) belonging to CCGTCTACTTGGGTTCTAACCTGTTGCTG (site CCGTCTACTAA) and report it.
0.019

Query: recombinant barcode read abundance (log10); subject: GTCTATGCTTGGGTTCTAACCTGTTGCCT (site GTCTATGCTAG)
0.0906

// returns reported recombinant barcode read abundance (log10) for input CACTGCTCTTGGGTTCTAACCTGTTGCCT (site CACTGGTCTAG)
0.151

Can you share its recombinant barcode read abundance (log10)? I mean this sequence: TAGTACTCTTGGGTTCTAACCTGTTGCTT (site TAGTACTCTTA)
0.0259

---

Can you tell me recombinant barcode read abundance (log10) for the items I'm about to list?
experiment: recombinant barcode read abundance after kanamycin selection (control-corrected) (log10(CPM+1)); higher = more efficient recombination; sequences stand for … in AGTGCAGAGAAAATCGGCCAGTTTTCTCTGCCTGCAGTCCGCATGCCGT…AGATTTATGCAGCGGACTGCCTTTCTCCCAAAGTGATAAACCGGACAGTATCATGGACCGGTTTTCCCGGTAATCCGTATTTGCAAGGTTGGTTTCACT; site = the 11-nt target
Please reply with the value in numeric form only.

What does the data say about its recombinant barcode read abundance (log10)? Entry: TACATTCCTTGGGTTCTAACCTGTTGCCT (site CACATTCCTAG)
0.0666

Requested read-out: recombinant barcode read abundance (log10). Entry: CGAGGGTCTTGGGTTCTAACCTGTTGCTT (site GGAGGGTCTAA)
0.413

Entry CTATTAACTTGGGTTCTAACCTGTTGCTA (site ACTCACCCTCC) has what recombinant barcode read abundance (log10)?
0.00656

Item under review: CACGGGACTTGGGTTCTAACCTGTTGCAG (site CACGGGACTCT) . Reported recombinant barcode read abundance (log10)?
2.58

Record request: recombinant barcode read abundance (log10) value, item TACCTGACTTGGGTTCTAACCTGTTGCCT (site TACCAGACTAG)
0.0067

I'd like to know its recombinant barcode read abundance (log10). The sequence in question is TTGCGAACTTGGGTTCTAACCTGTTGCAG (site GACGCGGCTAG)
0.0589

Using the record for CGATCATCTTGGGTTCTAACCTGTTGCCT (site CGTTCATCTAG) , report its recombinant barcode read abundance (log10).
0.0823

Given the entry ACATTAGCTTGGGTTCTAACCTGTTGCAA (site ACTTTAGCTCT) , report its measured recombinant barcode read abundance (log10).
0.0541

Bench note: what recombinant barcode read abundance (log10) did GTGGGAACTTGGGTTCTAACCTGTTGCTT (site TCCTATCCTTC) show?
0.0252

Which value of recombinant barcode read abundance (log10) has been reported for TGGTATGCTTGGGTTCTAACCTGTTGCCT (site TGGTATGCTAG) in the records?
1.39
